Each item that follows carries a reported pIC50.
- experimental-target: E. histolytica CS3 (Entamoeba histolytica)
- Sequence (Q401L7 entry or part of it): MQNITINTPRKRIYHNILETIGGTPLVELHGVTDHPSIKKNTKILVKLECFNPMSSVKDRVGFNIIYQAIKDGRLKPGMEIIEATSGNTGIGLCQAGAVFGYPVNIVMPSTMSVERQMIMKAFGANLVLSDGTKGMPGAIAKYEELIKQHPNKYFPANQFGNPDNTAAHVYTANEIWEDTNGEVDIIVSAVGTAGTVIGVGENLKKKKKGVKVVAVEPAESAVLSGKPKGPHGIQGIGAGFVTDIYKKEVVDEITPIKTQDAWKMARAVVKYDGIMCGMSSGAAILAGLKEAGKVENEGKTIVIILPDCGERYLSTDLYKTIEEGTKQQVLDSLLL
- experiment-description: CS inhibitory activity, recombinant CS3
- Type: biochemical
pIC50: −log10 of the molar value.

>>> result("C/C1=C\\[C@@H](C)C/C=C/[C@H]2[C@@H]3O[C@]3(C)[C@@H](C)[C@H]3[C@H](Cc4c[nH]c5ccccc45)NC(=O)[C@]32C(=O)/C=C/C(=O)[C@@H]1O")
"< 3.72"

Form: item CC1=CC2C=C(C)C(C)C3C(CC(C)C)NC(=O)C23C(=O)C=CC(=O)C(O)CC1 (stereo not shown) ; test system E. histolytica CS3 (Entamoeba histolytica); pIC50: < 3.60

Form: item C/C=C/C/C=C/CCC(=O)[C@H]1O[C@H]1C(N)=O [Cerulenin, reference compound] ; test system E. histolytica CS3 (Entamoeba histolytica); pIC50: < 3.35

Form: item CC1=CC(C)CC=CC2C3OC3(C)C(C)C3C(Cc4c[nH]c5ccccc45)NC(=O)C23C(=O)C=CC(=O)C1 (stereo not shown) ; test system E. histolytica CS3 (Entamoeba histolytica); pIC50: < 3.71

====

- Assay type: physicochemical
- measurement-parameters: 9 mM L-cysteine, 37°C, 2 days
parameter-measured: Stability in cysteine-supplemented water (HPLC)

>>> result("C/C1=C\\[C@@H](C)C/C=C/[C@H]2[C@@H]3O[C@]3(C)[C@@H](C)[C@H]3[C@H](Cc4c[nH]c5ccccc45)NC(=O)[C@]32C(=O)/C=C/C(=O)[C@@H]1O")
"totally lost"
>>> result("CC1=CC(C)CC=CC2C3OC3(C)C(C)C3C(Cc4c[nH]c5ccccc45)NC(=O)C23C(=O)C=CC(=O)C1 (stereo not shown)")
"totally lost"

====

- Test system: E. histolytica trophozoites
- experiment-description: In vitro antiamebic activity (WST-1), L-cysteine-deprived or L-cysteine-supplemented BI-S-33 medium
- Type: cell-based, Entamoeba histolytica
- measurement-parameters: Entamoeba histolytica; Cys (+) medium; read-out: Cytotoxicity IC50 Against Entamoeba histolytica in Cys (+)
parameter-measured: pIC50
Quick note: pIC50 means taking -log10 of the concentration in moles per liter.

Short answer for C/C=C(\C(=O)O)N1C(=O)C=C(C)C1=O [Pencolide] : pIC50 was 2.67

====

- experimental-target: E. histolytica CS1 (Entamoeba histolytica)
- Sequence (O15570 entry or part of it): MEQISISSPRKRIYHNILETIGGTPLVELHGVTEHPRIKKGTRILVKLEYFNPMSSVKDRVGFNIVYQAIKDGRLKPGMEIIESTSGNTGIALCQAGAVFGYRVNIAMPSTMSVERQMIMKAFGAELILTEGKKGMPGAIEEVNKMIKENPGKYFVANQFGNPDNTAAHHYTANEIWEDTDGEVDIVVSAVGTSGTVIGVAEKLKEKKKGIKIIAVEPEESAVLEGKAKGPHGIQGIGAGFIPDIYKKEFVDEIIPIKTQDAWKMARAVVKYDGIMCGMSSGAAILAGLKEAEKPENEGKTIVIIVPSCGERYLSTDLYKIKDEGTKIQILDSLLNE
- experiment-description: CS inhibitory activity, recombinant CS1
- Format: biochemical
pIC50: −log10 of the molar value.
Each item that follows carries a reported pIC50.

Illustrative cases are given below, each with its answer.
>>> result("CC1=CC2C=C(C)C(C)C3C(CC(C)C)NC(=O)C23C(=O)C=CC(=O)C(O)CC1 (stereo not shown)")
"< 3.60"
>>> result("CC1=CC(C)CC=CC2C3OC3(C)C(C)C3C(Cc4c[nH]c5ccccc45)NC(=O)C23C(=O)C=CC(=O)C1 (stereo not shown)")
"< 3.71"
>>> result("C/C=C/C/C=C/CCC(=O)[C@H]1O[C@H]1C(N)=O [Cerulenin, reference compound]")
"< 3.35"

Short answer for `C/C1=C\[C@@H](C)C/C=C/[C@H]2[C@@H]3O[C@]3(C)[C@@H](C)[C@H]3[C@H](Cc4c[nH]c5ccccc45)NC(=O)[C@]32C(=O)/C=C/C(=O)[C@@H]1O` : pIC50 was < 3.72

====

- experiment-description: Cytotoxicity against MRC-5 cells (WST-8)
- Format: cell-based, Human
- measurement-parameters: human, MRC-5 fibroblast cells; 2 days
parameter-measured: IC50 at 2 days
State the value with its unit after it.

Short answer for C/C=C(\C(=O)O)N1C(=O)C=C(C)C1=O [Pencolide] : IC50 at 2 days was 1.9 mM
